- SYSTEM_NAME: hBChE (Homo sapiens, UniProt P06276)
- Sequence (P06276 29-602): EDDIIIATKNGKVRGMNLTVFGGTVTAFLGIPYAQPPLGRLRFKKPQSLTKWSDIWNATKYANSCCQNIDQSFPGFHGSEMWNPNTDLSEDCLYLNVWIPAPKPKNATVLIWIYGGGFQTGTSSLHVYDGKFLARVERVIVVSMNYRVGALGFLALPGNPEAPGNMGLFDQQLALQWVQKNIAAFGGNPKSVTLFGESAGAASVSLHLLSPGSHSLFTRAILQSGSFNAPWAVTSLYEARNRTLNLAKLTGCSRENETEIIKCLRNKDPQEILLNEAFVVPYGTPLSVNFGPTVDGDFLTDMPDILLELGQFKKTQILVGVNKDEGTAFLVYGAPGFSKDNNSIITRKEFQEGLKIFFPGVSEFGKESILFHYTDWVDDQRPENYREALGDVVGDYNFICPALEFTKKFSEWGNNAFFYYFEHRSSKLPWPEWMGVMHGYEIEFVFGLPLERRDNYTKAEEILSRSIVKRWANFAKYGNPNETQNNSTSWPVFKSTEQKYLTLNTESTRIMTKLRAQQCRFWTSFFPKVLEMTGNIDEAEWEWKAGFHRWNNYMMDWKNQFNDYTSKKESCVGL
- ASSAY: Decarbamoylation from hBChE, dilution experiments (recovery of enzyme activity, k4)
- Assay type: biochemical
- EXPERIMENTAL_CONTEXT: decarbamoylation rate, after 1 h incubation and 1:1000 dilution
The threshold is 0.8 h⁻¹. Values of k4 beneath it are tagged TRUE; values meeting or exceeding it are tagged FALSE.

Example results:
1) CN1c2ccc(OC(=O)NCCCCCCN3CCCC3)cc2CN2CCc3ccccc3C21 (centres unmarked) [Compound 19o]; FALSE
2) CN1c2ccc(OC(=O)NCCCCCCN3CCc4ccccc4C3)cc2CN2CCc3ccccc3C21 (centres unmarked) [Compound 19j]; TRUE
3) CN1c2ccc(OC(=O)NCCCCCCN3CCOCC3)cc2CN2CCc3ccccc3C21 (centres unmarked) [Compound 19d]; TRUE
4) CN1c2ccc(OC(=O)NCCCCCCN3CCNCC3)cc2CN2CCc3ccccc3C21 (centres unmarked) [Compound 19r]; FALSE
5) CN1c2ccc(OC(=O)NCCCCCCn3cnc4ccccc43)cc2CN2CCc3ccccc3C21 (centres unmarked) [Compound 19m]; TRUE

# check: k4 < 0.8 h⁻¹ for CN1c2ccc(OC(=O)NCCCCCCCCN3CCc4ccccc4C3)cc2CN2CCc3ccccc3C21 (centres unmarked) [Compound 19k]
FALSE

# check: k4 < 0.8 h⁻¹ for CN1c2ccc(OC(=O)NCCCCN3CCc4ccccc4C3)cc2CN2CCc3ccccc3C21 (centres unmarked) [Compound 19i]
TRUE

# check: k4 < 0.8 h⁻¹ for CN1c2ccc(OC(=O)NCCCCCCCCN3CCOCC3)cc2CN2CCc3ccccc3C21 (centres unmarked) [Compound 19e]
FALSE

# check: k4 < 0.8 h⁻¹ for CN1c2ccc(OC(=O)NCCCCCCN3CCCCC3)cc2CN2CCc3ccccc3C21 (centres unmarked) [Compound 19p]
TRUE

# check: k4 < 0.8 h⁻¹ for CN1c2ccc(OC(=O)NCCCCN3CCOCC3)cc2CN2CCc3ccccc3C21 (centres unmarked) [Compound 19c]
TRUE
